- Tested on: smallflower flatsedge (Cyperus difformis)
- Protocol text: Test C flooded paddy test
- Assay type: in vivo
- Setup conditions: flooded paddy test, Rate 250 g/ha; scale 0 to 100 (0 no effect, 100 complete control)

{"Compound": "COc1cc(N2CCC(n3ccc(C(C)C)n3)C2=O)ccc1Br (stereo not shown)", "Plant response rating, Flatsedge": 95}
{"Compound": "CCC(C)c1ccn(C2OCN(c3cccc(OC(F)F)c3)C2=O)n1 (stereo not shown)", "Plant response rating, Flatsedge": 100}
{"Compound": "CCC(CC)c1ccn(C2CCN(c3ccc(Br)c(OC)c3)C2=O)n1 (stereo not shown)", "Plant response rating, Flatsedge": 95}
{"Compound": "CCC(C)c1ccn(C2CCN(c3ccc(F)c(C(F)(F)F)c3)C2=O)n1 (stereo not shown)", "Plant response rating, Flatsedge": 95}
